target: Methylosome protein 50/Protein arginine N-methyltransferase 5 (Homo sapiens, UniProt O14744+Q9BQA1); assay: Inhibition of recombinant N-terminal FLAG-tagged human full-length PRMT5/full length human MEP50 extracted from baculovirus expression system using [3H]-SAM as substrate preincubated for 15 mins followed by substrate addition and measured after 60 mins by multimode plate reader analysis
Sequence (O14744 whole entry): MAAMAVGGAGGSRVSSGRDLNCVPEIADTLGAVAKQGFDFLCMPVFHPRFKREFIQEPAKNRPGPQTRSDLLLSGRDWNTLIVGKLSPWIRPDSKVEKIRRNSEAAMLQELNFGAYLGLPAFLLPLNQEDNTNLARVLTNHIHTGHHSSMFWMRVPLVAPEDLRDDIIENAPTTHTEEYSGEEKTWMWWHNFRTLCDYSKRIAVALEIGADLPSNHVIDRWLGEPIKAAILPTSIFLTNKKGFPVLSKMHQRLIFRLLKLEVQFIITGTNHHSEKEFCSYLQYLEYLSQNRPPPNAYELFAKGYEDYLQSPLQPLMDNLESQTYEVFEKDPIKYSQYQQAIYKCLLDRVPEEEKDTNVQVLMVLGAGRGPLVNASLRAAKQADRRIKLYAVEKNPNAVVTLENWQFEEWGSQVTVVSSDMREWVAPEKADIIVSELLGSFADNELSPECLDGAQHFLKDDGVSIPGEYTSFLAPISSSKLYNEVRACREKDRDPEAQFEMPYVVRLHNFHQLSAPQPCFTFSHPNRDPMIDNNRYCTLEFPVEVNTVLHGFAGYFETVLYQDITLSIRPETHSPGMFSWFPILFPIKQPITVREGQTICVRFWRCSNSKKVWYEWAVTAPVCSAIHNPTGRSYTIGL
Sequence (Q9BQA1 whole entry): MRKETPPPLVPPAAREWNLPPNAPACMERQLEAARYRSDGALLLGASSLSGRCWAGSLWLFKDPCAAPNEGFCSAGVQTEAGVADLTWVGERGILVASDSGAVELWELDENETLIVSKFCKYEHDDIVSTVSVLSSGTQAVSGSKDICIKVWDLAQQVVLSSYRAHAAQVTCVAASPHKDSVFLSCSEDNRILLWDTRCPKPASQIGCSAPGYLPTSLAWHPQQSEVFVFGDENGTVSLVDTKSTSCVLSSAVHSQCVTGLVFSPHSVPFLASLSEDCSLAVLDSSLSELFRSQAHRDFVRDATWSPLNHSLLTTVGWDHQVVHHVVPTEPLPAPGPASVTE
measuredQuantity: pIC50
Schema: pIC50 number; meaning minus log10 of the concentration expressed in molar units.

Please give measured pIC50 of the following entry: CC(=O)N1CCC(Nc2cc3c(cn2)C2(CC2)CN(C[C@H](O)CN2CCc4ccccc4C2)C3=O)CC1 [US20240116918, Example 1]
7.48
